Test: BBB permeability assay, plasma and brain LC-MS/MS after oral administration;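 further: oral dosing solution 2 mg/mL in saline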
Type: in vivo, rat
Conditions: male, SD, rat, plasma, oral, 2 mg/mL, time 00:15:00; individual replicates; read-out: Plasma

{"columns": ["Molecule", "concentration at […] (ng/mL)"],
 "data": [
  ["CCN1CCN(c2cc(N3CCN(CC)CC3)nc(NCCNc3ccnc4cc(Cl)ccc34)n2)CC1 [4A7C-301]", 0]
]}

* * *

Biological target: Nurr1-LBD (Mus musculus, UniProt Q06219)
Construct: transfected with pCMV-fNurr1, pGAL-Nurr1(LBD), pGAL-Nor1(LBD) or pGAL-Nur77(LBD) and reporter construct; expressed in transfected cells; host or cells: SK-N-BE(2)C (human neuroblastoma), N27-A (rat dopaminergic), MN9D (murine dopaminergic)
Sequence (Q06219 360-595 limits assumed): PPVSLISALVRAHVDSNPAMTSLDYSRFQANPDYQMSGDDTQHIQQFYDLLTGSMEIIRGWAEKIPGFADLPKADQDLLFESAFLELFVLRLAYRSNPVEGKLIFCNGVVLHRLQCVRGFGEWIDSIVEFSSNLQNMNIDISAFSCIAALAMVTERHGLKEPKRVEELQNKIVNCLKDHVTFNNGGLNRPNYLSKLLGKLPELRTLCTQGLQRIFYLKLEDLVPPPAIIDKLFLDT
Assay: Luciferase reporter assay, Nurr1-LBD, SK-N-BE(2)C cells
Type: cell-based
Conditions: Nurr1 activation, Supplementary Table 1, values in µM
Sorting guide: entries reporting EC50 beneath 2 µM go in the 1 pile, the rest go in the 0 pile.

{"columns": ["Compound", "Assigned Category"],
 "data": [
  ["Cc1cc(N2CCCCC2)nc(NC2CCCC(Nc3ccnc4cc(Cl)ccc34)C2)n1 (centres unmarked)", 1],
  ["Cc1cc(N2CCN(C)CC2)nc(NC2CCCC(Nc3ccnc4cc(Cl)ccc34)C2)n1 (centres unmarked)", 0],
  ["Cc1cc(N2CCSCC2)nc(NC2CCCC(Nc3ccnc4cc(Cl)ccc34)C2)n1 (centres unmarked)", 1],
  ["CCN1CCN(c2cc(N3CCOCC3)nc(NCCNc3ccnc4cc(Cl)ccc34)n2)CC1", 1],
  ["CCN(CC)CCCC(C)Nc1ccnc2cc(Cl)ccc12 (centres unmarked)", 0]
]}

* * *

Molecular target: Nurr1-LBD (Mus musculus)
Construct: transfected with pCMV-fNurr1, pGAL-Nurr1(LBD), pGAL-Nor1(LBD) or pGAL-Nur77(LBD) and reporter construct; expressed in transfected cells; host or cells: SK-N-BE(2)C (human neuroblastoma), N27-A (rat dopaminergic), MN9D (murine dopaminergic)
Experiment: Luciferase reporter assay, Nurr1-LBD, SK-N-BE(2)C cells
Format: cell-based
Conditions: Nurr1 activation, Supplementary Table 1, values in µM
Below, each entry is listed alongside its reported EC50.

{"columns": ["Compound", "EC50 (µM)"],
 "data": [
  ["Cc1cc(NC2CCCC(Nc3ccnc4cc(Cl)ccc34)C2)nc(N2CCCCC2)n1 (stereo not shown)", 1.22],
  ["Cc1cc(N(CCNc2ccnc3cc(Cl)ccc23)Cc2ccc3c(c2)OCO3)nc(N2CCN(C)CC2)n1", 3.39],
  ["Cc1cc(NC2CCCC(Nc3ccnc4cc(Cl)ccc34)C2)nc(N2CCOCC2)n1 (stereo not shown)", 1.08],
  ["CCN1CCN(c2nccc(N3CCN(CCNc4ccnc5cc(Cl)ccc45)CC3)n2)CC1", 10]
]}

* * *

Molecular target: Nurr1-LBD (Mus musculus, UniProt Q06219)
Construct: transfected with pCMV-fNurr1, pGAL-Nurr1(LBD), pGAL-Nor1(LBD) or pGAL-Nur77(LBD) and reporter construct; expressed in transfected cells; host or cells: SK-N-BE(2)C (human neuroblastoma), N27-A (rat dopaminergic), MN9D (murine dopaminergic)
Test: Luciferase reporter assay, Nurr1-LBD, SK-N-BE(2)C cells
Assay type: cell-based
Conditions: Nurr1 activation, Supplementary Table 1
Entry flag: Condition met if Maximum fold activity reaches 4 fold; Condition not met if it does not.

{"columns": ["Molecule", "Assigned Category"],
 "data": [
  ["CCN1CCN(c2cc(C)nc(N(CCNc3ccnc4cc(Cl)ccc34)Cc3cccs3)n2)CC1", "Condition not met"],
  ["Cc1cc(N(CCNc2ccnc3cc(Cl)ccc23)Cc2cccs2)nc(N2CCCCC2)n1", "Condition not met"],
  ["Cc1cc(NC2CCCC(Nc3ccnc4cc(Cl)ccc34)C2)nc(N2CCN(c3ccccc3)CC2)n1 (stereo not drawn)", "Condition not met"],
  ["Cc1cc(NC2CCCC(Nc3ccnc4cc(Cl)ccc34)C2)nc(Cl)n1 (stereo not drawn)", "Condition not met"],
  ["CCN1CCN(c2cc(N3CCOCC3)nc(NCCNc3ccnc4cc(Cl)ccc34)n2)CC1", "Condition met"],
  ["Clc1ccc2c(NCCN3CCN(c4ccnc(N5CCSCC5)n4)CC3)ccnc2c1", "Condition met"],
  ["Cc1cc(N(CCNc2ccnc3cc(Cl)ccc23)Cc2cccs2)nc(Cl)n1", "Condition met"],
  ["Cc1cc(N2CCN(CCNc3ccnc4cc(Cl)ccc34)CC2)nc(N2CCCC2)n1", "Condition not met"],
  ["Cc1cc(N2CCN(CCNc3ccnc4cc(Cl)ccc34)CC2)nc(N2CCN(C)CC2)n1", "Condition met"]
]}

* * *

Assay: BBB permeability assay, plasma and brain LC-MS/MS after oral administration;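 further: oral dosing solution 2 mg/mL in saline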
Type: in vivo, rat
Details: male, SD, rat, brain, oral, 2 mg/mL, time 8:00:00; individual replicates
Outcome Measure: concentration at 8 h (ng/g)

{"columns": ["Test Smiles", "Recorded Result"],
 "data": [
  ["CCN1CCN(c2cc(N3CCN(CC)CC3)nc(NCCNc3ccnc4cc(Cl)ccc34)n2)CC1", 28.7]
]}

* * *

Target: Nurr1-LBD (Mus musculus, UniProt Q06219)
Construct: transfected with pCMV-fNurr1, pGAL-Nurr1(LBD), pGAL-Nor1(LBD) or pGAL-Nur77(LBD) and reporter construct; expressed in transfected cells; host or cells: SK-N-BE(2)C (human neuroblastoma), N27-A (rat dopaminergic), MN9D (murine dopaminergic)
Assay: Luciferase reporter assay, Nurr1-LBD, SK-N-BE(2)C cells
Type: cell-based
Details: Nurr1 activation, Supplementary Table 1
Entry flag: Fulfilled if Maximum fold activity reaches 6 fold; Not fulfilled if it does not.

{"columns": ["Compound", "Assigned Category"],
 "data": [
  ["CCN1CCN(c2nc(NCCCCNc3ccnc4cc(Cl)ccc34)c3ccccc3n2)CC1 [4A7C-401]", "Not fulfilled"],
  ["CCN1CCN(c2cc(N3CCCCC3)nc(NCCNc3ccnc4cc(Cl)ccc34)n2)CC1 [4A7C-304]", "Not fulfilled"],
  ["Cc1cc(N2CCOCC2)nc(N(CCNc2ccnc3cc(Cl)ccc23)Cc2cccs2)n1 [4A7C-503]", "Not fulfilled"],
  ["Cc1cc(N2CCSCC2)nc(NC2CCCC(Nc3ccnc4cc(Cl)ccc34)C2)n1 (centres unmarked) [4A7C-606]", "Not fulfilled"],
  ["Cc1cc(N2CCCC2)nc(NC2CCCC(Nc3ccnc4cc(Cl)ccc34)C2)n1 (centres unmarked) [4A7C-604]", "Not fulfilled"],
  ["CCN1CCN(c2cc(N3CCN(C)CC3)nc(NCCNc3ccnc4cc(Cl)ccc34)n2)CC1 [4A7C-306]", "Fulfilled"],
  ["Cc1cc(NC2CCCC(Nc3ccnc4cc(Cl)ccc34)C2)nc(N2CCCCC2)n1 (centres unmarked) [4A7C-603]", "Fulfilled"],
  ["Cc1cc(N2CCN(c3ccccc3)CC2)nc(NC2CCCC(Nc3ccnc4cc(Cl)ccc34)C2)n1 (centres unmarked) [4A7C-608]", "Fulfilled"],
  ["Cc1cc(N2CCN(C)CC2)nc(NC2CCCC(Nc3ccnc4cc(Cl)ccc34)C2)n1 (centres unmarked) [4A7C-607]", "Not fulfilled"],
  ["Clc1ccc2c(NCCN3CCN(c4nccc(-n5ccnc5)n4)CC3)ccnc2c1 [4A7C-509]", "Not fulfilled"],
  ["Clc1ccc2c(NCCN3CCN(c4ccnc(Cl)n4)CC3)ccnc2c1 [4A7C-203]", "Not fulfilled"],
  ["Cc1cc(N(CCNc2ccnc3cc(Cl)ccc23)Cc2ccc3c(c2)OCO3)nc(N2CCN(C)CC2)n1 [4A7C-501]", "Fulfilled"],
  ["Cc1cc(N(CCNc2ccnc3cc(Cl)ccc23)Cc2cccs2)nc(N2CCOCC2)n1 [4A7C-506]", "Not fulfilled"],
  ["CCN1CCN(c2cc(Cl)nc(NCCCNc3ccnc4cc(Cl)ccc34)n2)CC1 [4A7C-103]", "Not fulfilled"],
  ["CCN1CCN(c2nccc(N3CCN(CCNc4ccnc5cc(Cl)ccc45)CC3)n2)CC1 [4A7C-206]", "Fulfilled"],
  ["CCN1CCN(c2cc(Cl)nc(NCCNc3ccnc4cc(Cl)ccc34)n2)CC1 [4A7C-104]", "Not fulfilled"],
  ["Cc1cc(N2CCN(C)CC2)nc(N(CCNc2ccnc3cc(Cl)ccc23)Cc2cccs2)n1 [4A7C-504]", "Not fulfilled"]
]}

* * *

Biological target: Nurr1-LBD (Mus musculus, UniProt Q06219)
Construct: transfected with pCMV-fNurr1, pGAL-Nurr1(LBD), pGAL-Nor1(LBD) or pGAL-Nur77(LBD) and reporter construct; expressed in transfected cells; host or cells: SK-N-BE(2)C (human neuroblastoma), N27-A (rat dopaminergic), MN9D (murine dopaminergic)
Test: Luciferase reporter assay, Nurr1-LBD, SK-N-BE(2)C cells
Format: cell-based
Settings: Nurr1 activation, Supplementary Table 1, values in µM
Below, each entry is listed alongside its reported EC50.

{"columns": ["Molecule", "Unit Spec", "EC50"],
 "data": [
  ["Cc1cc(N2CCN(c3ccccc3)CC2)nc(NC2CCCC(Nc3ccnc4cc(Cl)ccc34)C2)n1 (stereo not shown) [4A7C-608]", "µM", 1.14],
  ["Cc1cc(NC2CCCC(Nc3ccnc4cc(Cl)ccc34)C2)nc(N2CCN(c3ccccc3)CC2)n1 (stereo not shown) [4A7C-602]", "µM", 3.86],
  ["CCN1CCN(c2cc(N3CCN(CC)CC3)nc(NCCNc3ccnc4cc(Cl)ccc34)n2)CC1 [4A7C-301]", "µM", 6.53],
  ["Cc1cc(N2CCCC2)nc(NC2CCCC(Nc3ccnc4cc(Cl)ccc34)C2)n1 (stereo not shown) [4A7C-604]", "µM", 1.03]
]}
